Biological target: FGFR3 enzyme (Homo sapiens (Human), UniProt P22607)
Sequence (P22607 23-806): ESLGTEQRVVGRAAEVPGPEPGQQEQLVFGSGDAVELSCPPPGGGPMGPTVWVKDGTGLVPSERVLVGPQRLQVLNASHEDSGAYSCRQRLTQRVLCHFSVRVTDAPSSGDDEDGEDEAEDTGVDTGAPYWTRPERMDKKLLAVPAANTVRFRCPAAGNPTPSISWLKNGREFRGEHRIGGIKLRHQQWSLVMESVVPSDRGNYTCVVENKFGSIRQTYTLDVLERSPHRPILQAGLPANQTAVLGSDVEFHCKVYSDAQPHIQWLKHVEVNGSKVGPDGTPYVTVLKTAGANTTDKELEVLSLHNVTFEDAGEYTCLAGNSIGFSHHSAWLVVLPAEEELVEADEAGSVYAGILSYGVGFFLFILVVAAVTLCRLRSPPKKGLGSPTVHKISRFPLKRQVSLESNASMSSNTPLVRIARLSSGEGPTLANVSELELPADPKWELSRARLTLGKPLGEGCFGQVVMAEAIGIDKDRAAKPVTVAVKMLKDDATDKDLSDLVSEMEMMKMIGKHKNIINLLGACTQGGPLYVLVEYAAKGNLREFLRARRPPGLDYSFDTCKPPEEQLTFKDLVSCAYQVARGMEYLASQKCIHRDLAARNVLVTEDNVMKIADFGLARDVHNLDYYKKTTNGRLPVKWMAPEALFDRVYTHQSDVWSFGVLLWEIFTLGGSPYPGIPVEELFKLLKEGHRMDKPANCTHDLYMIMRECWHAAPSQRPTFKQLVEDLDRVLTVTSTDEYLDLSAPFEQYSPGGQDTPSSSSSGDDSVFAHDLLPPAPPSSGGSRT
Experiment: FGFR Enzymatic Assay (peptide phosphorylation, FRET), FGFR3
Assay type: biochemical
Conditions: IC50 ratio showing FGFR3 selectivity; pre-incubated for 4 hours
measurement.name: FGFR1/FGFR3

Example results:
1) CCn1cc(N2C(=O)N(c3c(F)c(OC)cc(OC)c3F)Cc3cnc(-c4cn(C)nc4C)cc32)cn1 ... >3
2) COc1cc(OC)c(F)c(N2Cc3cnc(-c4cn(C)nc4C)cc3N(CC3CCOCC3)C2=O)c1F ... >1
3) COc1cc(OC)c(F)c(N2Cc3cnc(-c4cn(C)nc4C)cc3N(c3ccc(F)cc3)C2=O)c1F ... >10

Simply: COc1cc(OC)c(F)c(N2Cc3cnc(-c4cn(C)nc4C)cc3N(c3cccc(-c4cnnn4C)c3)C2=O)c1F , FGFR3 enzyme (Homo sapiens (Human), UniProt P22607), FGFR1/FGFR3 = >5

Simply: COc1ccc(N2C(=O)N(c3c(F)c(OC)cc(OC)c3F)Cc3cnc(-c4cn(C)nc4C)cc32)cc1 , FGFR3 enzyme (Homo sapiens (Human), UniProt P22607), FGFR1/FGFR3 = >3

Simply: COc1cc(OC)c(F)c(N2Cc3cnc(-c4cn(C)nc4C)cc3N(Cc3ccc(C#N)nc3)C2=O)c1F , FGFR3 enzyme (Homo sapiens (Human), UniProt P22607), FGFR1/FGFR3 = >5

Simply: COc1cc(OC)c(F)c(N2Cc3cnc(-c4cn(C)nc4C)cc3N(c3ccc(F)c(C#N)c3)C2=O)c1F , FGFR3 enzyme (Homo sapiens (Human), UniProt P22607), FGFR1/FGFR3 = >5

Simply: COc1cc(OC)c(F)c(N2Cc3cnc(-c4cn(C)nc4C)cc3N(Cc3ccnc(C)c3)C2=O)c1F , FGFR3 enzyme (Homo sapiens (Human), UniProt P22607), FGFR1/FGFR3 = >5

###

Target: FGFR3 enzyme (Homo sapiens (Human))
Experiment: FGFR Enzymatic Assay (peptide phosphorylation, FRET), FGFR3
Type: biochemical
Conditions: IC50 ratio showing FGFR3 selectivity; pre-incubated for 4 hours
measurement.name: FGFR4/FGFR3

1) COc1cc(OC)c(F)c(N2Cc3cnc(-c4cnn(C5CCN(S(C)(=O)=O)C5)c4)cc3C3(CC3)C2=O)c1F (stereo not drawn) ... >3
2) CCN1C(=O)N(c2c(F)c(OC)cc(OC)c2F)Cc2cnc(-c3cn(CC)nc3C)cc21 ... >3
3) COc1cc(OC)c(F)c(N2Cc3cnc(-c4cn(C)nc4C)cc3N(CC3CCOCC3)C2=O)c1F ... >10
4) COc1cc(OC)c(F)c(N2Cc3cnc(-c4cn(C)nc4C)cc3N(Cc3ccc(C#N)nc3)C2=O)c1F ... >5
5) COc1cc(N2C(=O)N(c3c(F)c(OC)cc(OC)c3F)Cc3cnc(-c4cn(C)nc4C)cc32)ccc1C#N ... >10

Summary for this molecule, CCCn1cc(N2C(=O)N(c3c(F)c(OC)cc(OC)c3F)Cc3cnc(-c4cn(C)nc4C)cc32)cn1 : FGFR4/FGFR3 is >5

Summary for this molecule, COc1cc(OC)c(F)c(N2Cc3cnc(-c4cn(C)nc4C)cc3N(c3ccc(-n4cccn4)cc3)C2=O)c1F : FGFR4/FGFR3 is >10

Summary for this molecule, COc1cc(OC)c(F)c(N2Cc3cnc(-c4cn(C5CCN(CC#N)C5)nc4C)cc3C3(CC3)C2=O)c1F (stereo not drawn) : FGFR4/FGFR3 is >3

Summary for this molecule, COc1cc(CN2C(=O)N(c3c(F)c(OC)cc(OC)c3F)Cc3cnc(-c4cn(C)nc4C)cc32)ccn1 : FGFR4/FGFR3 is >10

Summary for this molecule, CCN1C(=O)N(c2c(F)c(OC)cc(OC)c2F)Cc2cnc(-c3cn(CC(=O)N4CCOCC4)nc3C)cc21 : FGFR4/FGFR3 is >1

Summary for this molecule, COc1cc(OC)c(F)c(N2Cc3cnc(-c4cn(C)nc4C)cc3N(C3CC3)C2=O)c1F : FGFR4/FGFR3 is >5

Summary for this molecule, COc1cc(OC)c(F)c(N2Cc3cnc(-c4cn(C)nc4C)cc3N(Cc3cc(C(C)C)on3)C2=O)c1F : FGFR4/FGFR3 is >5

Summary for this molecule, COc1cc(OC)c(F)c(N2Cc3cnc(-c4cn(C)nc4C)cc3N(c3ccc4cn[nH]c4c3)C2=O)c1F : FGFR4/FGFR3 is >5

Summary for this molecule, COc1cc(OC)c(F)c(N2Cc3cnc(-c4cn(C)nc4C)cc3N(C3CCCC3)C2=O)c1F : FGFR4/FGFR3 is >5

Summary for this molecule, COc1cc(OC)c(F)c(N2Cc3cnc(-c4cn(C5CCN(C)C5)nc4C)cc3C3(CC3)C2=O)c1F (stereo not drawn) : FGFR4/FGFR3 is >3
